# PROTOCOL_SUMMARY: Arterial blood gas analysis
# Format: in vivo, rabbit
# RUN_CONDITIONS: Reperfusion 2 h
Consider the following compounds and their measured PaCO2 readings.

{"COMPOUND": "FC(F)OC(F)(F)C(F)Cl (stereo not shown)", "PaCO2": "27 ± 2 mmHg"}
{"COMPOUND": "FC(F)OC(F)C(F)(F)F (stereo not shown)", "PaCO2": "26 ± 3 mmHg"}
{"COMPOUND": "FC(F)OC(Cl)C(F)(F)F (stereo not shown)", "PaCO2": "32 ± 2 mmHg"}
{"COMPOUND": "FCOC(C(F)(F)F)C(F)(F)F", "PaCO2": "38 ± 1 mmHg"}
